Test system: NCI-H292 lung cancer cells
test_name: FDA drug screening, complete media vs cholesterol-free media without statin (TABLE 1)
Type: cell-based, human
Where a name gives a salt, the structure may show the parent alone.
We begin with a simple list: items and their reported Difference.

compound | measurement_label | observed_value
CCCSc1ccc2nc(NC(=O)OC)[nH]c2c1 | Difference | 0.09
OC(c1ccccc1)(c1ccccc1)C12CC[N+](CCOCc3ccccc3)(CC1)CC2.[Br-] [Umeclidinium (bromide)] | Difference | 0.17
NC1=NCC2c3ccccc3Cc3ccccc3N12 (stereo not shown) [Epinastine (hydrochloride)] | Difference | −0.53

Now, please, on to the next compound.
Which measured Difference belongs to CC(C)(C)CC(C)(C)c1ccc(OCCOCC[N+](C)(C)Cc2ccccc2)cc1 [Benzethonium chloride] , tested on NCI-H292 lung cancer cells?
0.14

----------
Tested on: NCI-H292 lung cancer cells
test_name: FDA drug screening, complete media vs cholesterol-free media without statin (TABLE 1)
Type: cell-based, human
details: NCI-H292 cells, cholesterol-free media without statin, FDA drug library screen
Cholesterol-free strictly less than 1 = 1. Otherwise -1.

Example results:
compound | assigned_label
CC(C)CN(C[C@@H](O)[C@H](Cc1ccccc1)NC(=O)O[C@H]1CCOC1)S(=O)(=O)c1ccc(N)cc1 | 1
O=C(O)/C=C/c1ccc(Cn2ccnc2)cc1 [Ozagrel (sodium)] | -1
COCC(=O)Nc1c(I)c(C(=O)NCC(O)CO)c(I)c(C(=O)N(C)CC(O)CO)c1I (stereo not drawn) [Iopromide] | 1

Given the entry C[C@@H](O)[C@H]1C(=O)N2C(C(=O)O)=C(S[C@@H]3CN[C@H](C(=O)N(C)C)C3)[C@H](C)[C@H]12 [Meropenem (trihydrate)] , would its reported Cholesterol-free be below 1?
-1

Given the entry `O=C1OCCN1/N=C/c1ccc([N+](=O)[O-])o1` , would its reported Cholesterol-free be below 1?
1

Given the entry `COc1cc(C=O)ccc1O` , would its reported Cholesterol-free be below 1?
1

Given the entry `CO[C@H]1/C=C/O[C@@]2(C)Oc3c(C)c(O)c4c(O)c(c(/C=N/N5CCN(C)CC5)c(O)c4c3C2=O)NC(=O)/C(C)=C\C=C\[C@H](C)[C@H](O)[C@@H](C)[C@@H](O)[C@@H](C)[C@H](OC(C)=O)[C@@H]1C` , would its reported Cholesterol-free be below 1?
1

Given the entry CC(C)[C@H]1CC[C@H](C(=O)N[C@H](Cc2ccccc2)C(=O)O)CC1 [Nateglinide] , would its reported Cholesterol-free be below 1?
-1

----------
System: NCI-H292 lung cancer cells
test_name: FDA drug screening, complete media vs cholesterol-free media without statin (TABLE 1)
Type: cell-based, human
details: NCI-H292 cells in complete media
Where a name gives a salt, the structure may show the parent alone.
Complete strictly less than 0.8 = Met. Otherwise Not met.

Example results:
compound | target_or_test_system | assigned_label
N#C[C@@H]1CCCN1C(=O)CNC12CC3CC(CC(O)(C3)C1)C2 | NCI-H292 lung cancer cells | Met
CCC1(c2ccccc2)C(=O)NCNC1=O | NCI-H292 lung cancer cells | Not met
O=C(c1ccc(F)cc1)C1CCN(CCn2c(=O)[nH]c3ccccc3c2=O)CC1 | NCI-H292 lung cancer cells | Met
CN(C)[C@@H]1C(O)=C(C(N)=O)C(=O)[C@@]2(O)C(O)=C3C(=O)c4c(O)cccc4[C@@](C)(O)[C@H]3[C@H](O)[C@@H]12 [Oxytetracycline (hydrochloride)] | NCI-H292 lung cancer cells | Not met

Given the entry `Oc1ccc(OCc2ccccc2)cc1` , would its reported Complete be below 0.8?
Not met

Given the entry C=C1CC[C@@H]2[C@](C)(COC(=O)CCC(=O)O)[C@H](OC(=O)CCC(=O)O)CC[C@@]2(C)[C@@H]1/C=C/C1=CCOC1=O [Dehydroandrographolide succinate] , would its reported Complete be below 0.8?
Not met
